Taken from PubChem BioAssay AID743395.

system: HepG2 viability, CellTiter-Glo ATP luminescence, 72 h; assay: viability loss in human hepatoma cells – cell-based, CellTiter-Glo luminescence, cherry-pick, set 2, cytotoxicity control, dose response (AID 743395)
Measured Parameter: AC35

Please review the entries below; each comes with its answer.
Compound	System Tested	AC35
CCCCNc1c(-c2ccc(SC(C)CC)c(OC)c2)nc2ccc(C)cn12 (stereo not given)	HepG2 viability, CellTiter-Glo ATP luminescence, 72 h	13.6 µM
CC(=O)N1CCc2cc(S(=O)(=O)N3c4ccccc4CC3C)ccc21 (stereo not given)	HepG2 viability, CellTiter-Glo ATP luminescence, 72 h	10.2 µM
COc1ccc([C@H]2CC(=O)C=C(c3c(OC)cccc3OC)C2)cc1	HepG2 viability, CellTiter-Glo ATP luminescence, 72 h	3.37 µM

query: Give AC35 for the following compound: CCCn1c(CN2CCN(C(=O)OCC)CC2)nc2cc(NC(=O)CC)ccc21
result: 18.9 µM

query: Give AC35 for the following compound: Nc1[nH]c(C(=O)c2ccccc2)c(-c2ccccc2C(F)(F)F)c1C(=O)NCCc1c[nH]c2ccccc12
result: 22.4 µM

###

system: HepG2 viability, CellTiter-Glo ATP luminescence, 72 h; assay: viability loss in human hepatoma cells – cell-based, CellTiter-Glo luminescence, cherry-pick, set 2, cytotoxicity control, dose response (AID 743395)
Measured Parameter: AC35

Please review the entries below; each comes with its answer.
Molecule	AC35
O=C1/C(=C\c2cc(Cl)c(O)c(Cl)c2)SC(=S)N1Cc1ccccc1	15.4 µM
CC/C=C/CC(=O)N[C@@H](c1ccccc1)[C@@H](O)C(=O)O[C@H]1C[C@@]2(O)[C@@H](OC(=O)c3ccccc3)C3[C@](C)(C(=O)[C@H](OC(C)=O)C(=C1C)C2(C)C)[C@@H](O)C[C@H]1OC[C@@]31OC(C)=O (some centres undefined)	1.98 µM
Cc1noc(C)c1COc1ccc(C(=O)NNC(=O)c2ccccc2)cc1	12.2 µM

Lab note: next molecule to report on.
query: Give AC35 for the following molecule: CCOC(=O)N1CCC(NC(=O)c2ccc3c(c2)N=C(C)c2c(C)ccc(C)c2S3)CC1
result: 2.44 µM

###

tested on: HepG2 viability, CellTiter-Glo ATP luminescence, 72 h; test: viability loss in human hepatoma cells – cell-based, CellTiter-Glo luminescence, cherry-pick, set 2, cytotoxicity control, dose response (AID 743395)
Measured Parameter: AC35

Compound	AC35
CCN(CC)c1ccc(/C=N/NC(=O)c2ccco2)c(O)c1	1.13 µM
COc1c(C=O)c2c(c(OC)c1OC)-c1ccc(OC)c(=O)cc1C(NC(C)=O)CC2 (stereo not given)	3.12 µM
O=C(N/N=C/c1cc2c3c(c1O)CCCN3CCC2)c1ccccc1O	0.751 µM
C[C@H]1CN([C@@H](C)CO)S(=O)(=O)c2ccc(C#Cc3ccc(F)cc3)cc2O[C@H]1CN(C)C(=O)NC1CCCCC1	11.9 µM

query: Give AC35 for the following compound: O=C(Cc1ccccc1)N1CC(=O)N2[C@H](C1)[C@@H](c1ccc(C#Cc3ccccc3)cc1)[C@@H]2CO
result: 20.3 µM

query: Give AC35 for the following compound: Cc1ccc2nc(-c3ccc4c(c3)OCCO4)cn2c1
result: 8.36 µM

query: Give AC35 for the following compound: Cc1ccc(-c2nn(-c3ccccc3)cc2C(=O)N2CCN(c3ccccn3)CC2)cc1
result: 12.3 µM

query: Give AC35 for the following compound: O=C(N/N=C/c1c(O)ccc2ccccc12)c1ccc(Br)o1
result: 1.18 µM

query: Give AC35 for the following compound: NC(=O)N=Nc1c2[nH]c3ccccc3nc-2c2ccccc12
result: 16.6 µM

query: Give AC35 for the following compound: COc1ccc2sc3cccc(NCCN(C)C)c3c(=O)c2c1
result: 10.4 µM
